studyTarget: MAP4K5 (human)
protocolSummary: radiometric filter-binding kinase assay, Kinase HotSpot
conditionInfo: compound 0.5 µM; ATP 10 µM
Label condition not met if residual activity falls below 80%; label condition met in every other case.

Some solved cases for reference:
compound	groupLabel
CC[n+]1c(/C=C/N(C)c2ccccc2)n(-c2ccccc2)c2ccc(-c3nc4ccccc4s3)cc21	condition met
CCN(CC)CCNC(=O)c1c(C)[nH]c(/C=C2\C(=O)Nc3ccc(Cl)cc32)c1C	condition not met
CO[C@H]1CC2CC[C@@H](C)[C@@](O)(O2)C(=O)C(=O)N2CCCC[C@H]2C(=O)OC([C@H](C)C[C@@H]2CC[C@@H](O)[C@H](OC)C2)CC(=O)[C@H](C)/C=C(\C)[C@@H](O)[C@@H](OC)C(=O)[C@H](C)C[C@H](C)/C=C/C=C/C=C/1C (stereo not given in full)	condition met
CNc1cc2c(Nc3cccc(Br)c3)ncnc2cn1	condition not met
COc1ccc2c(c[n+](C)c3c4cc5c(cc4ccc23)OCO5)c1OC	condition met

Quick check, residual activity >= 80%? Cc1ccc(Nc2nccc(N(C)c3ccc4c(C)n(C)nc4c3)n2)cc1S(N)(=O)=O
condition not met

---

Reported residual activity values for the following molecules.
studyTarget: HIPK1 (human)
protocolSummary: radiometric filter-binding kinase assay, Kinase HotSpot
conditionInfo: compound 0.5 µM; ATP 10 µM
Give the value in % but do not write % after it.

Worked cases, answers included:
molecule	number
CCN(CC)CCNC(=O)c1c(C)[nH]c(/C=C2\C(=O)Nc3ccc(Cl)cc32)c1C	96.9
c1ccc(-c2n[nH]c3c2oc2ccccc23)cc1	103
O=c1cc(N2CCOCC2)oc2c1ccc1ccccc12	102
Oc1cccc(-c2nc(N3CCOCC3)c3oc4ncccc4c3n2)c1	101
O=C1NC(=O)/C(=C/c2ccc3c(c2)OC(F)(F)O3)S1	95.9
COc1ccc(COc2ccc(Cc3cnc(N)nc3N)cc2OC)cc1	110
c1ccc(-c2n[nH]cc2-c2ccnc3ccccc23)nc1	99.9
O=C(Nc1cccc(Nc2nccc(Nc3cccc(C(F)(F)F)c3)n2)c1)C1CC1	98.7

Entry under review: N#C/C(=C(/N)Sc1ccc(N)cc1)c1ccccc1C(F)(F)F . Reported residual activity?
107

Entry under review: Cc1ccc(S(=O)(=O)/C=C/C#N)cc1 . Reported residual activity?
105

Entry under review: CCCC(=O)Oc1ccc2[nH]c(C(=O)c3cc4ccccc4[nH]3)cc2c1 . Reported residual activity?
101

Entry under review: COc1cc2ncnc(Nc3cccc(Cl)c3)c2cc1OC . Reported residual activity?
98.7

Entry under review: CNC(=O)c1cc(Oc2ccc(NC(=O)Nc3ccc(Cl)c(C(F)(F)F)c3)cc2)ccn1 . Reported residual activity?
99.7

Entry under review: O=C1Nc2ccc(Cl)cc2/C1=C/c1cc(Cl)c(O)c(Cl)c1 . Reported residual activity?
102

Entry under review: Nc1ncnc2c1c(-c1ccc(Oc3ccccc3)cc1)cn2C1CCCC1 . Reported residual activity?
114

Entry under review: CC(=O)c1ccc(N2CCOCC2)cc1O . Reported residual activity?
93.9

Entry under review: Nc1ncnc2[nH]nc(Nc3ccc(F)cc3)c12 . Reported residual activity?
106

Entry under review: CCN(CC)CCNC(=O)c1c(C)[nH]c(/C=C2\C(=O)Nc3ccc(F)cc32)c1C . Reported residual activity?
71.3

Entry under review: CCC(=O)Nc1ccc2ncnc(Nc3cccc(Br)c3)c2c1 . Reported residual activity?
104

Entry under review: CC(C)N(CCC(=O)c1ccc2ccccc2c1)Cc1ccccc1 . Reported residual activity?
106

Entry under review: O=C1NC(=O)C(c2cn(CCCn3ccnc3)c3ccccc23)=C1Nc1ccccc1 . Reported residual activity?
102

Entry under review: N#CC(C#N)=C(N)/C(C#N)=C/c1ccc(O)cc1 . Reported residual activity?
103

---

studyTarget: ACVRL1 (human)
protocolSummary: radiometric filter-binding kinase assay, Kinase HotSpot
conditionInfo: compound 0.5 µM; ATP 10 µM
Reported residual activity values for the following compounds.
Give the value in % but do not write % after it.

Worked cases, answers included:
Cc1ccc(Nc2nccc(N(C)c3ccc4c(C)n(C)nc4c3)n2)cc1S(N)(=O)=O 102
Cc1[nH]c(/C=C2\C(=O)Nc3ccc(S(=O)(=O)N(C)c4cccc(Cl)c4)cc32)c(C)c1C(=O)N1CCN(C)CC1 103
N#C/C(=C(/N)Sc1ccc(N)cc1)c1ccccc1C(F)(F)F 106

Entry under review: Nc1ncnc2c1c(-c1ccc(Oc3ccccc3)cc1)cn2C1CCCC1 . Reported residual activity?
95.9

Entry under review: CC(C)N(CCC(=O)c1ccc2ccccc2c1)Cc1ccccc1 . Reported residual activity?
107

Entry under review: CC#CC(=O)Nc1cc2c(Nc3ccc(F)c(Cl)c3)ncnc2cn1 . Reported residual activity?
101

Entry under review: O=S(=O)(c1cccc2cnccc12)N1CCCNCC1 . Reported residual activity?
111

Entry under review: CCN(CC)CCNC(=O)c1c(C)[nH]c(/C=C2\C(=O)Nc3ccc(F)cc32)c1C . Reported residual activity?
112

Entry under review: Nc1ccc2ncnc(NCCc3ccc(Oc4ccccc4)cc3)c2c1 . Reported residual activity?
93.5

Entry under review: CNC(=O)c1cc(Oc2ccc(NC(=O)Nc3ccc(Cl)c(C(F)(F)F)c3)cc2)ccn1 . Reported residual activity?
104

Entry under review: O=C1NC(=O)C(c2cn(CCCn3ccnc3)c3ccccc23)=C1Nc1ccccc1 . Reported residual activity?
95.9

Entry under review: CCN(CC)CCNC(=O)c1c(C)[nH]c(/C=C2\C(=O)Nc3ccc(Cl)cc32)c1C . Reported residual activity?
89

Entry under review: Oc1cccc(-c2nc(N3CCOCC3)c3oc4ncccc4c3n2)c1 . Reported residual activity?
105

Entry under review: CNc1cc2c(Nc3cccc(Br)c3)ncnc2cn1 . Reported residual activity?
90.6

Entry under review: CC[n+]1c(/C=C/N(C)c2ccccc2)n(-c2ccccc2)c2ccc(-c3nc4ccccc4s3)cc21 . Reported residual activity?
110

---

studyTarget: NEK1 (human)
protocolSummary: radiometric filter-binding kinase assay, Kinase HotSpot
conditionInfo: compound 0.5 µM; ATP 10 µM
assayMetric: residual activity (%)
Give the value in % but do not write % after it.

Worked cases, answers included:
CCN(CC)CCNC(=O)c1c(C)[nH]c(/C=C2\C(=O)Nc3ccc(F)cc32)c1C 72.6
O=C1Nc2ccc(Cl)cc2/C1=C/c1cc(Cl)c(O)c(Cl)c1 81.5
CC[n+]1c(/C=C/N(C)c2ccccc2)n(-c2ccccc2)c2ccc(-c3nc4ccccc4s3)cc21 102
c1ccc(-c2n[nH]c3c2oc2ccccc23)cc1 95.2
N#C/C(=C(/N)Sc1ccc(N)cc1)c1ccccc1C(F)(F)F 99
O=C1NC(=O)C(c2cn(CCCn3ccnc3)c3ccccc23)=C1Nc1ccccc1 114
COc1ccc2c(c[n+](C)c3c4cc5c(cc4ccc23)OCO5)c1OC 91.3
Nc1ncnc2c1c(-c1ccc(Oc3ccccc3)cc1)cn2C1CCCC1 79.3

Entry under review: CC#CC(=O)Nc1cc2c(Nc3ccc(F)c(Cl)c3)ncnc2cn1 . Reported residual activity?
105

Entry under review: Nc1ccc2ncnc(NCCc3ccc(Oc4ccccc4)cc3)c2c1 . Reported residual activity?
102

Entry under review: COc1cc2ncnc(Nc3cccc(Cl)c3)c2cc1OC . Reported residual activity?
93.1

---

studyTarget: PTK6 (human) (UniProt Q13882)
Sequence (Q13882 whole entry, looked up): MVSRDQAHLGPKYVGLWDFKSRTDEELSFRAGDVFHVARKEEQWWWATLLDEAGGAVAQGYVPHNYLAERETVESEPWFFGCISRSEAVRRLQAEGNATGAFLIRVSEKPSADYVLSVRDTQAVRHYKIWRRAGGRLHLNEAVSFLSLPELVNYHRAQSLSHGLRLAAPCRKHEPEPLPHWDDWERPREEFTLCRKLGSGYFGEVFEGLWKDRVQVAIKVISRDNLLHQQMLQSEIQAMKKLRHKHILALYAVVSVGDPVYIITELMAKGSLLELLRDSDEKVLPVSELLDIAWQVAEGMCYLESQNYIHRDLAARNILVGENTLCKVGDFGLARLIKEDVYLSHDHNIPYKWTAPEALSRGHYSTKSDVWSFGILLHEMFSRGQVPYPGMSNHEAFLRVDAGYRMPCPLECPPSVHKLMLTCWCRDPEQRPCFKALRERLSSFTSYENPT
protocolSummary: radiometric filter-binding kinase assay, Kinase HotSpot
conditionInfo: compound 0.5 µM; ATP 10 µM
Reported residual activity values for the following compounds.

Worked cases, answers included:
CC#CC(=O)Nc1cc2c(Nc3ccc(F)c(Cl)c3)ncnc2cn1 56.8%
N#C/C(=C(/N)Sc1ccc(N)cc1)c1ccccc1C(F)(F)F 97.6%
CC[n+]1c(/C=C/N(C)c2ccccc2)n(-c2ccccc2)c2ccc(-c3nc4ccccc4s3)cc21 90.2%
CCCC(=O)Oc1ccc2[nH]c(C(=O)c3cc4ccccc4[nH]3)cc2c1 85.4%
O=C1NC(=O)c2c1c1c3ccccc3n3c1c1c2c2ccccc2n1C1CCC3O1 83.9%
COc1cc2ncnc(Nc3cccc(Cl)c3)c2cc1OC 39%
COc1ccc2c(c[n+](C)c3c4cc5c(cc4ccc23)OCO5)c1OC 94.4%
CNc1cc2c(Nc3cccc(Br)c3)ncnc2cn1 54.4%

Shifting focus to the compound that follows.
PTK6 (human) (UniProt Q13882) / residual activity / CC(C)N(CCC(=O)c1ccc2ccccc2c1)Cc1ccccc1 : value?
96.4%

---

studyTarget: CSK (human)
protocolSummary: radiometric filter-binding kinase assay, Kinase HotSpot
conditionInfo: compound 0.5 µM; ATP 10 µM
Reported residual activity values for the following molecules.
Give the value in % but do not write % after it.

Worked cases, answers included:
Nc1ncnc2[nH]nc(Nc3ccc(F)cc3)c12 80.2
CNc1cc2c(Nc3cccc(Br)c3)ncnc2cn1 82
O=S(=O)(c1cccc2cnccc12)N1CCCNCC1 87.9
Cc1ccc(NC2=CC(=O)c3sc(C)nc3C2=O)cc1 102

Entry under review: Oc1cccc(-c2nc(N3CCOCC3)c3oc4ncccc4c3n2)c1 . Reported residual activity?
88.3

Entry under review: O=C(Nc1cccc(Nc2nccc(Nc3cccc(C(F)(F)F)c3)n2)c1)C1CC1 . Reported residual activity?
97.4

Entry under review: CNC(=O)c1cc(Oc2ccc(NC(=O)Nc3ccc(Cl)c(C(F)(F)F)c3)cc2)ccn1 . Reported residual activity?
90.3
